Recorded IC50 values (Potassium voltage-gated channel subfamily A member 5 (Homo sapiens)) are given below.
# output: bare number, implied unit nM

### Prompt Form field: reported IC50 of CC1=Nc2ccnn2C(c2ccc(Cl)c(Cl)c2)C1C(=O)N1CCCC1c1ccccn1 (stereo unspecified)
### Response 660

### Prompt Name the reported IC50 value associated with the compound CC1=Nc2ccnn2C(c2ccc(Cl)c(Cl)c2)C1C(=O)N1CCCC1c1ccccc1 (stereo unspecified)
### Response 150

### Prompt Could you share which IC50 value was measured for COC(=O)[C@@H]1CCCN1C(=O)C1C(C)=Nc2ccnn2C1c1ccc(Cl)c(Cl)c1 (stereo partly specified) ?
### Response 150

----------
- target system: UniProt P22460
- test: Inhibition of human Kv1.5 channel expressed in mouse L929 cells
pIC50: −log10 of the molar value.
Exercise: state measured pIC50 for each of the compounds provided.

### Prompt Please report the recorded pIC50 for CC1=Nc2ccnn2C(c2ccc(Cl)c(Cl)c2)C1C(=O)N1CCC[C@H]1c1n[nH]c(=O)n1C (stereo partly drawn) .
### Response < 6.00

### Prompt Which pIC50 value is on record for CC1=Nc2ccnn2C(c2ccc(Cl)c(Cl)c2)C1C(=O)N1CCC[C@H]1c1nnn[nH]1 (stereo partly drawn) ?
### Response < 6.00

### Prompt I would be grateful if you could share the reported pIC50 for CC1=Nc2ccnn2C(c2ccc(Cl)c(Cl)c2)C1C(=O)N1CCC[C@H]1c1nnc(N)s1 (stereo partly drawn) .
### Response < 6.00
